- run-description: binders of probe aFST on microarray, primary screen, stem cell growth factor project, biochemical, small-molecule microarray, fluorescence 635/667 (AID 1086);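 note: score merges 667 nm fluorescence with signal-to-noise of each printed compound spot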
- settings: higher = more signal
Lab note: class by composite z-score, see bottom bin = under -0.3, middle bin = from -0.3 up to 0.3, top bin = 0.3 and over

Known results for molecules:
INSERT INTO results (molecule, class_name) VALUES
  ('CO[C@H]1COC(=O)[C@@H](C)COC(=O)[C@H](Cc2ccccc2)NC(=O)CC=C[C@H]1C', 'middle bin'),
  ('C=CCNC(=O)[C@H]1[C@@H]2C(=O)O[C@@H](c3ccccc3)[C@@H](c3ccccc3)N2[C@@H](c2ccccc2OCCO)[C@]12C(=O)N(C(=O)OCCOC)c1ccc(C#CCC(C(=O)OC)C(=O)OC)cc12', 'top bin'),
  ('C=C(CCCC)C(=O)CC[C@@H](OC(=O)c1cccnc1)c1cccc(OCCO)c1', 'top bin'),
  ('CCOC(=O)C[C@H]1[C@H](OC(=O)Cc2ccc3c(c2)OCO3)[C@@H](NC(=O)CC(C)C)c2cc(OCCCO)ccc2N1C(=O)c1ccccc1', 'middle bin'),
  ('CO[C@@H]1COC(=O)CC=C[C@H](C)COC(=O)[C@H](Cc2ccccc2)NC(=O)CC=C[C@H]1C', 'bottom bin');

Below: the item to evaluate.
Task item: Which category fits this record: CC(=O)NCCCC[C@@H]1NC(=O)[C@@H]2C[C@H](C(=O)NCCCCCNC(=O)CS)[C@H](c3ccc(O)cc3)N2C1=O
Reply: bottom bin

====

- run-description: osmotic lysis modulators in infected erythrocytes, primary screen, PSAC antagonist project, cell-based, P. falciparum Indochina, OD700, 3 h (AID 1156)
- settings: higher = more signal, called active from +8 up or from −8 down
z-score vs 0.6: at or above is y, below is n.

Please review the following examples before continuing.
INSERT INTO results (molecule, class_name) VALUES
  ('C=CCC(OC(C)=O)[C@@H]1[C@@H](N(Cc2ccc(-c3ccccc3)cc2)C(=O)c2ccc(C)cc2)c2cc(OCCCO)ccc2N1C(=O)c1ccc(-c2ccccc2)cc1 (stereo partly drawn)', 'n'),
  ('C[C@@H]1CC[C@H]2C(=O)N3[C@@H](CC[C@@H](C)[C@@H]3c3cccc(N4CCOCC4)c3)C(=O)N2[C@H]1c1cccc(N2CCOCC2)c1', 'n'),
  ('COCCOC(=O)N1C(=O)[C@@]2(c3ccccc31)[C@H](C(=O)N1CCc3cc(OC)c(OC)cc3C1)[C@H]1C(=O)O[C@H](c3ccccc3)[C@H](c3ccccc3)N1[C@@H]2c1ccccc1OCCO', 'y');

Task item: Could you please find out whether COc1ccc(NN2C(C(O)c3cc(OC)c(OC)c(OC)c3)C=CC3C(=O)N(C4CCCCC4)C(=O)C32)cc1 (stereo not drawn) has z-score that meets 0.6 or exceeds it?
Reply: y

Task item: Item C=CC[C@@]1(C(=O)N2CCOCC2)N=C(c2ccc(OCCCO)cc2)O[C@@H]1c1ccccc1 with z-score of 0.6 or above?
Reply: y

Task item: Please check the record CC(C)C[C@@H]1NC(=O)[C@H](CC(C)C)NC(=O)[C@@]23C(=O)N[C@@H](Cc4ccccc4)C2[C@H](C)[C@@]2(C)O[C@H]2C3/C=C/CC/C=C/CNC1=O (stereo partly drawn) and state if its z-score is at or above 0.6.
Reply: y

Task item: Threshold query (z-score >= 0.6) on CCOC(=O)C[C@H]1[C@H](OC(=O)c2ccccc2-c2ccccc2)[C@@H](NC(=O)c2ccc(-c3ccccc3)cc2)c2cc(OCCCO)ccc2N1C(=O)Cc1ccc(OC)cc1
Reply: n

Task item: Confirm if z-score reported for the molecule COc1ccc([Si](C)(C)[C@H]2[C@H](CCO)O[C@@]3(C(=O)N(Cc4ccccc4)c4ccc(N5C(=O)c6cccc7cccc5c67)cc43)[C@@H]2C)cc1 is 0.6 or above.
Reply: y

Task item: Would you say COc1cc(CO)cc(I)c1O[C@H]1C=C(C(=O)NCCO)C[C@@H](N(CC2CCCCC2)C(=O)c2cc3ccccc3oc2=O)[C@@H]1O shows z-score at minimum 0.6?
Reply: y

Task item: Check this molecule for z-score at or above 0.6: COc1cc(Cc2cc3c(c(CCc4ccccc4)n2)[Si](C(C)C)(C(C)C)OC3)cc(OC)c1OC
Reply: n

Task item: Decide: z-score of CC(C)[Si](OCC[C@H]1O[C@]2(C(=O)N(Cc3ccccc3)c3ccccc32)[C@@H](C)[C@@H]1[Si](C)(C)O)(C(C)C)C(C)C >= 0.6?
Reply: n

Task item: hey, is z-score for this one >= 0.6? C=CCNC(=O)[C@H]1[C@@H]2C(=O)O[C@@H](c3ccccc3)[C@@H](c3ccccc3)N2[C@@H](c2ccccc2OCCO)[C@]12C(=O)N(C(=O)OCCOC)c1ccc(C#CCC(C(=O)OC)C(=O)OC)cc12
Reply: y

Task item: Hi team, for O=C(NCc1ccccc1)c1ccc(Br)cc1[N+](=O)[O-] , is the recorded z-score at or above 0.6?
Reply: n

====

- measured-target: Homeobox protein Hox-A13 (Mus musculus) (UniProt Q62424)
- Sequence (Q62424 whole entry, looked up): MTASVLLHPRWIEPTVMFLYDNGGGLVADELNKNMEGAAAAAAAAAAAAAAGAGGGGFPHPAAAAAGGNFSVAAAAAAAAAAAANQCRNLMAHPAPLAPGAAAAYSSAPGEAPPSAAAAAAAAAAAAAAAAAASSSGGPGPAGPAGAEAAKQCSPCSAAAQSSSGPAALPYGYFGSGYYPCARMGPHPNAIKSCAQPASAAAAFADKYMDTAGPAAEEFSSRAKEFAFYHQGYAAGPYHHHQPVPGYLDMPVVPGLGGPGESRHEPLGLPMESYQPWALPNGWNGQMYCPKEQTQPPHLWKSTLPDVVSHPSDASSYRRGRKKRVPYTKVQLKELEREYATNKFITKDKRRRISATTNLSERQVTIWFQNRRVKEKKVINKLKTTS
- run-description: inhibitors of HoxA13-DNA binding, primary screen, biochemical, fluorescence polarization, labeled oligonucleotide (AID 1185)
- settings: 15 min, higher = more signal, called active from +8 up or from −8 down
observable: z-score
Output spec: single numeric token, no unit.

INSERT INTO results (molecule, observable, reported_measurement) VALUES
  ('O=C1O[C@@H](c2ccccc2)[C@@H](c2ccccc2)N2[C@@H](c3ccc(O)cc3)[C@]3(C(=O)Nc4ccc(C#CC5(O)CCCCCC5)cc43)[C@@H](C(=O)Nc3nc4ccccc4s3)[C@H]12', 'z-score', -0.586),
  ('O=C1c2ccccc2[C@](Cc2ccccc2I)(C(=O)NCc2ccccc2)[C@H](c2ccc(CO)cc2)N1Cc1ccccc1C(F)(F)F', 'z-score', -1.29),
  ('CSCC[C@@H]1NC(=O)CC=C[C@@H](C)COC(=O)[C@H](CCSC)NC(=O)CC=C[C@@H](C)COC1=O', 'z-score', 1.03),
  ('CCOC(=O)C[C@H]1[C@H](OC(=O)Cc2ccc3c(c2)OCO3)[C@@H](NC(=O)CC(C)C)c2cc(OCCCO)ccc2N1C(=O)c1ccccc1', 'z-score', -1.41),
  ('COCCOC(=O)N1C(=O)[C@@]2(c3cc(C#CC4=CCCCC4)ccc31)[C@H](c1ccc(O)cc1)N1[C@H](c3ccccc3)[C@H](c3ccccc3)OC(=O)[C@H]1[C@@H]2C(=O)N1CCCCCCC1', 'z-score', 2.08),
  ('Cc1ccccc1C(O)C1C=CC2C(=O)N(c3ccccc3)C(=O)C2N1Nc1ccc(C#N)cc1 (configuration not stated)', 'z-score', -0.699);

Task item: Return reported z-score for target or system Homeobox protein Hox-A13 (Mus musculus) (UniProt Q62424), item O=C1C2C=CC(C(O)C#Cc3ccccc3)N(Nc3ccccc3)C2C(=O)N1c1ccccc1 (configuration not stated) .
Reply: -4.05

====

- measured-target: Follistatin (Homo sapiens)
- run-description: follistatin binders on small-molecule microarrays, primary screen, biochemical, small-molecule microarray, 635/667 nm fluorescence (AID 1132)
- settings: FST binding, 635 nm fluorescence, higher = more signal
Measured composite z-score, listed per entry.
// response body must contain only the number

Solved cases (5 shown):
INSERT INTO results (compound, reported_measurement) VALUES
  ('CN1C(=O)C2C=CC(C(O)C3CC=CCC3)N(Nc3ccccc3)C2C1=O (stereo not given)', 1.28),
  ('CC(C)(C)OC(=O)CC[C@]1(C(=O)NCCN2CCOCC2)N=C(c2ccc(OCCCO)cc2)O[C@H]1c1ccccc1CN=[N+]=[N-]', -0.651),
  ('CCCC/C=C/[C@H]([C@@H](O)Cc1ccccc1)N(CC#Cc1ccccc1)Cc1ccccc1Br', -1.59),
  ('C=C(CCCC)/C(=C/C[C@H](OC(=O)c1ccncc1)c1cccc(OCCO)c1)c1cc(C(=O)OC)ccc1OC', 0.852),
  ('O=C1O[C@@H](c2ccccc2)[C@@H](c2ccccc2)N2[C@@H](c3ccc(O)cc3)[C@]3(C(=O)Nc4ccc(C#CC5(O)CCCCCC5)cc43)[C@@H](C(=O)Nc3nc4ccccc4s3)[C@H]12', 1.37);

Task item: Give the observed composite z-score of CCC(=O)[C@]12O[C@@]3([C@@H]4C(=O)OCC[C@@H]41)N(CC)C(C)=C(C(=O)OC)[C@@H](c1ccccc1)N3C2=O for Follistatin (Homo sapiens).
Reply: 0.754

Task item: State the measured composite z-score (Follistatin (Homo sapiens)) of CCOC(=O)C[C@H]1[C@H](OC(=O)c2ccccc2-c2ccccc2)[C@@H](NC(=O)c2ccc(-c3ccccc3)cc2)c2cc(OCCCO)ccc2N1C(=O)Cc1ccc(OC)cc1
Reply: 0.362

Task item: Report composite z-score under test system Follistatin (Homo sapiens) for CO[C@H]1O[C@H](CO)[C@@H](OC(=O)Nc2ccccc2)[C@H](OC(=O)Nc2ccc3c(c2)OCO3)[C@@H]1OC(=O)Nc1ccc2c(c1)OCO2 .
Reply: 0.87

Task item: Would you please give the reported composite z-score of C=C(CCCC)C(=O)CC[C@@H](OC(C)=O)c1ccccc1OCCO with Follistatin (Homo sapiens)?
Reply: -0.245

Task item: Quote Follistatin (Homo sapiens) composite z-score for entry CO[C@H]1COC(=O)[C@H](C)NC(=O)CC=C[C@@H](C)[C@H](NS(=O)(=O)c2ccc(C)cc2)COC(=O)[C@@H](OCc2ccccc2)C=C[C@@H]1C .
Reply: 0.641

Task item: Given O=C1C2C=CC(C(O)C#Cc3ccccc3)N(Nc3ccccc3)C2C(=O)N1c1ccccc1 (stereo not given) , report its composite z-score on Follistatin (Homo sapiens).
Reply: 0.108

Task item: State composite z-score on Follistatin (Homo sapiens). Entry: CCCCCCc1nc(C2CC2)c(C)c2c1[Si](C(C)C)(C(C)C)OC2
Reply: -0.0256

Task item: GET composite z-score | system: Follistatin (Homo sapiens) | item: CCN1C(C)=C(C(=O)OC)[C@@H](c2ccccc2)N2C(=O)[C@@]3(C(=O)OC)O[C@@]12[C@@H]1C(=O)N(C)C(=O)[C@@H]13
Reply: 0.968

Task item: Tell me its composite z-score on Follistatin (Homo sapiens): Cc1ccc(S[C@]2(C(=O)O)CC(=O)N(Cc3cc(C(F)(F)F)cc(C(F)(F)F)c3)[C@@H]2c2ccc(CO)cc2I)cc1
Reply: -0.251

Task item: Report its composite z-score with Follistatin (Homo sapiens) as the test system: COC(=O)c1c(CC[C@@H](CO)NC(=O)N[C@H](Cn2cc(-c3cncn3C)nn2)C(C)C)oc(C(C)=O)c1C(=O)OC
Reply: 0.415
